experimental details: phase I clinical plasma pharmacokinetics (noncompartmental); Reg 1: 3qw continuous; Reg 3: 3qw 2 weeks on/1 week off
Format: in vivo, human
study conditions: human, plasma, oral, 300 mg, 300 mg Reg.1, Cycle 1 Day 8, n 5, Tlast=8h; read-out: AUClast, Mean (SD)

molecule	AUC(0-t) / ng·h/mL
COc1cc2c(cc1OC(C)C)[C@H](c1ccc(Cl)cc1)N(c1ccc(N(C)C[C@H]3CC[C@H](N4CCN(C)C(=O)C4)CC3)cc1)C(=O)C2	48400

* * *

experimental details: phase I clinical plasma pharmacokinetics (noncompartmental); Reg 1: 3qw continuous; Reg 3: 3qw 2 weeks on/1 week off
Assay type: in vivo, human
study conditions: human, plasma, oral, 300 mg, 300 mg Reg.1, Cycle 1 Day 1, n 7; read-out: Cmax, Mean (SD)
result type: Cmax

compound	value measured
COc1cc2c(cc1OC(C)C)[C@H](c1ccc(Cl)cc1)N(c1ccc(N(C)C[C@H]3CC[C@H](N4CCN(C)C(=O)C4)CC3)cc1)C(=O)C2 [CGM097]	5640 ng/mL

* * *

experimental details: phase I clinical plasma pharmacokinetics (noncompartmental); Reg 1: 3qw continuous; Reg 3: 3qw 2 weeks on/1 week off
Format: in vivo, human
study conditions: human, plasma, oral, 80 mg, 80 mg Reg.1, Cycle 1 Day 1, n 4; read-out: Cmax, Mean (SD)
result type: Cmax (ng/mL)

molecule	reading unit	value measured
COc1cc2c(cc1OC(C)C)[C@H](c1ccc(Cl)cc1)N(c1ccc(N(C)C[C@H]3CC[C@H](N4CCN(C)C(=O)C4)CC3)cc1)C(=O)C2	ng/mL	1700

* * *

experimental details: phase I clinical plasma pharmacokinetics (noncompartmental); Reg 1: 3qw continuous; Reg 3: 3qw 2 weeks on/1 week off
Format: in vivo, human
study conditions: human, plasma, oral, 300 mg, 300 mg Reg.3, Cycle 2 Day 1, n 5; read-out: Cmax, Mean (SD)
result type: Cmax (ng/mL)

molecule	result type	value measured
COc1cc2c(cc1OC(C)C)[C@H](c1ccc(Cl)cc1)N(c1ccc(N(C)C[C@H]3CC[C@H](N4CCN(C)C(=O)C4)CC3)cc1)C(=O)C2	Cmax	2710
